Every entry's value here was drawn from patent US20190194323A1.

system_under_test: T1, Siglec-7-ECD (human, UniProt Q9Y286 19-353)
T1 construct: also called p75; AIRM
protocol_notes: monovalent Fab; bio-layer interferometry (ForteBio) per Methods
pKd: −log10 of the molar value.

binder: humanized 16H11-derived Fab, VH AK449-4 / VL AK448-3 (Fab, V domains shown, Measured as monovalent Fab; also called No. 29; VH449-4 and VL448-3) VH: QVQLVQSGAEVKKPGSSVKVSCKASGYDFSNFWMNWVRQAPGQGLEWMGGIYPGDGEIKYNQKFQGRVTITADESTSTAYMELSSLRSEDTAVYYCARDDYLRAMDIWGQGTMVTVSS VL: DIQMTQSPSSLSASVGDRVTITCRASQNIHNYLAWYQQKPGKAPKFLLYSAKRLESGVPSRFSGSGSGTDYTLTISSLQPEDFATYYCQHFWSSPYTFGQGTKLEIK
pKd: > 10.00
